src = patent US12258327B2

Measured log10 IC50, listed per entry.
Molecular target: EGFR del19/C797S (Homo sapiens, UniProt P00533, C797S/DEL746-750)
Sequence (P00533 with tags, fused parts or gaps DEL746-750/C797S): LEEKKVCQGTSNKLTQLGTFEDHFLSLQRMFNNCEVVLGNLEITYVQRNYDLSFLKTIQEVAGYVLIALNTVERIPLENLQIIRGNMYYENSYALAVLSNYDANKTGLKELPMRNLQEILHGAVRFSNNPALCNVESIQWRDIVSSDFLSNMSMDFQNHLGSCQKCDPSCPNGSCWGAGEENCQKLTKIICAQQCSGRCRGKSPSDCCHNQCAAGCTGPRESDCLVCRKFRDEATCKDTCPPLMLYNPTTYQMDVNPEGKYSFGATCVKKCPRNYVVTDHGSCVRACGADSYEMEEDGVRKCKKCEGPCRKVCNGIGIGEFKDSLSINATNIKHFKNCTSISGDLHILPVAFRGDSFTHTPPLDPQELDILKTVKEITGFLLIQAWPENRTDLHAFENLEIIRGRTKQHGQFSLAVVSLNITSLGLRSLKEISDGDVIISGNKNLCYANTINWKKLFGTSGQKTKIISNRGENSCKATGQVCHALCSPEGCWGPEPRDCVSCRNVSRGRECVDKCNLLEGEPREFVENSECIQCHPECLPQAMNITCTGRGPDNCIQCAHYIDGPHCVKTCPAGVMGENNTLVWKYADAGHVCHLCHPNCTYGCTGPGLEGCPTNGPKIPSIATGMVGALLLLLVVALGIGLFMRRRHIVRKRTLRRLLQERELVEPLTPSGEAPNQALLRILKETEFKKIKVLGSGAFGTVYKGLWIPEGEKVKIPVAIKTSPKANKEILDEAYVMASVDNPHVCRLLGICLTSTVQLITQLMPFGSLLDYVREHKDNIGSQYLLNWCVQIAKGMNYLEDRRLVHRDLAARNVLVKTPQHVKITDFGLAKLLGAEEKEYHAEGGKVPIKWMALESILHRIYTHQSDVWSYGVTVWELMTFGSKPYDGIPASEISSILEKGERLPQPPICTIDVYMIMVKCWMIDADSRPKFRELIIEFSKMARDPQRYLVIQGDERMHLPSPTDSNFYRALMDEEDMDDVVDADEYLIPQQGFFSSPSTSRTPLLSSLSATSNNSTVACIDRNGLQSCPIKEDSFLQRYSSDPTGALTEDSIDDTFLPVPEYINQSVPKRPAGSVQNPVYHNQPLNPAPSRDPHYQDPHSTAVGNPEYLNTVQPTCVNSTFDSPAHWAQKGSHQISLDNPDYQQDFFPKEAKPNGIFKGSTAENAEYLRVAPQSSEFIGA
Assay: Biochemical EGFR kinase assay (Lance Ultra TR-FRET), double mutant del19/C797S
Conditions: Km ATP; read-out: IC50 del19/C797S, Km ATP
property_measured: log10 IC50 (log10 of the value in nM)

>  <molecule>
CC1(O)CCC(Nc2cc(Nc3ccnc(N4CC(CO)C(C)(C)C4)n3)ncc2-c2ccn(C(F)F)n2)CC1 (stereo not drawn)

>  <quantitative_result>
2.00

$$$$
>  <molecule>
Cc1nn(CC(F)(F)F)cc1-c1nccc(Nc2cc(N[C@H]3CC[C@@](C)(O)CC3)c(-c3ccn(C(F)(F)F)n3)cn2)n1

>  <quantitative_result>
1.34

$$$$
>  <molecule>
C[C@]1(O)CC[C@@H](Nc2cc(Nc3ccnc(-c4cnn(CC(F)F)c4)n3)ncc2-c2ccn(CC(F)F)n2)CC1

>  <quantitative_result>
0.67

$$$$
>  <molecule>
C[C@]1(O)CC[C@@H](Nc2nc(Nc3ccnc(-c4cnn(S(=O)(=O)C5CC5)c4)c3)ncc2-c2ccn(CCC(F)(F)F)n2)CC1

>  <quantitative_result>
1.19

$$$$
>  <molecule>
O=S(=O)(C1CC1)n1cc(-c2nccc(Nc3cc(N[C@H]4C[C@@H](CO)C4)c(-c4ccn(C(F)F)n4)cn3)n2)cn1

>  <quantitative_result>
0.62

$$$$
>  <molecule>
C[C@]1(O)CC[C@@H](Nc2nc(Nc3ccnc(-c4cnn(S(=O)(=O)C5CC5)c4)c3)ncc2-c2ccn(CC(F)F)n2)CC1

>  <quantitative_result>
0.72

$$$$
